Target: T1, MCL-1 (UniProt Q07820 172-327, limits assumed)
T1 construct: also called Myeloid cell leukemia 1
T1 sequence (Q07820 172-327 limits assumed): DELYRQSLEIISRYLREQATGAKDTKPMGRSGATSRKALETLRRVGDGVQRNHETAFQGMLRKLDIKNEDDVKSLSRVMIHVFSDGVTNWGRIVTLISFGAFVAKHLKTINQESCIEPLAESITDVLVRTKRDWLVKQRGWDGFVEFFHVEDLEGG
Test: Ki table, method not stated
pKi: −log10 of the molar value. Positions of bridges follow the written chain, without caps; N, C: chain ends. Non-standard residues stand in square brackets, D forms with d. R8 = C=CCCCCCC[C@@](C)(N)C(=O)O; hAdm = homo-adamantyl glycine; S5 = C=CCCC[C@](C)(N)C(=O)O
Each entry below lists one item and its recorded pKi value.

binder	pKi
IWIAQALRAIGDAFNAYYA (not fully specified; Ac- at N-terminus; -NH2 at C-terminus; $r8 at 9 and $ at 16 joined by all-carbon crosslinker) [SEQ ID NO: 1633]	8.08
IWIAQALXAIGDAFNAYYA (Ac- at N-terminus; -NH2 at C-terminus; $r8 at 9 and $ at 16 joined by all-carbon crosslinker; Cit (citrulline) at 8) [SEQ ID NO: 1655]	8.12
Ac-IWIAQA[hAdm]R[R8]IGDAFN[S5]YYA-NH2 (staple 9-16, also called Ac-IWIAQAhAdmR$r8IGDAFN$YYA-NH2) [SEQ ID NO: 1691]	7.78
IWIAQALRAIGDEFNAYYARR (not fully specified; Ac- at N-terminus; -NH2 at C-terminus; $r8 at 9 and $ at 16 joined by all-carbon crosslinker) [SEQ ID NO: 1628]	7.97
